# Test system: KM12 colon
# Protocol text: NCI-60 one-dose screen, 48 h
# Test parameters: 10 µM unless noted
This is part of a sample that, as a whole, favours compounds with a hit. Of some 83,000 tested, about 20% had one in any assay. Calls of active or inactive are those of the source. How the source made its calls: active means growth percent below 10; inactive means the rest.
Write down one outcome, taken from Yes (active), No (inactive)

Consider the following illustrative entries.
Clc1ccc2c(NCCCN3CCN(c4nc(N5CCOCC5)nc5ccccc45)CC3)ccnc2c1 : No
C[C@H]1[C@H](C)CC[C@]2(C(=O)N3CCN(C)CC3)CC[C@]3(C)C(=CC[C@@H]4[C@@]5(C)C/C(=C/c6cccnc6)C(=O)C(C)(C)[C@@H]5CC[C@]43C)[C@H]12 : Yes
CC(c1ccc(-n2cccn2)cc1)c1cnc(N2CCc3ccc(C(N)=O)cc3C2)s1 (stereo not drawn) : No
COc1ccc(-c2cc(-c3cc(OC)ccc3OC)[nH]c(=O)c2C#N)cc1 : No
C[C@@H]1CC[C@@H]2[C@@H]1[C@H](OC(=O)/C=C/c1ccccc1)[C@]1(CCCOCCOCCOCCOC(=O)CCCC[C@@H]3SC[C@@H]4NC(=O)N[C@@H]43)C[C@@H](OC(=O)CO)[C@@]2(C)O1 : No
CN(C)CCN1C(=O)c2cccc3c(-c4ccc(-c5nc6c7ccccc7c7ccccc7c6[nH]5)cc4)ccc(c23)C1=O : No
Cc1ccc(NC(=O)C(Cl)Cl)cc1 : No
COc1ccc(/C(C)=C(\c2ccc(Cl)cc2)c2ccc(OCCN(C)C)cc2)cc1F : No

Task: Hello, I am checking results. What call was entered for O=C1Nc2ccccc2/C1=N/N=C/c1c[nH]c2ccccc12 ?
Output: No

Task: Recorded call for CCCCCCN(CCCCCC)CC(O)c1cccc2ccc(Cl)cc12 (stereo not drawn) ?
Output: No

Task: # outcome recorded in this test, key = CC[C@]1(O)C[C@H]2CN(CCc3c([nH]c4ccccc34)[C@@](C(=O)OC)(c3cc4c(cc3OC)N(C=O)[C@H]3[C@@](O)(C(=O)OC)[C@H](OC(C)=O)[C@]5(CC)C=CCN6CC[C@]43[C@@H]65)C2)C1
Output: Yes

Task: Dear all, I need the recorded test outcome for Cc1cc(N2CCCCC2)nc(N(CCNc2ccnc3cc(Cl)ccc23)Cc2ccccn2)n1 , thank you.
Output: No

Task: Please share the test call associated with O=C(Nc1ccccc1)c1sc(-c2cccc(C(F)(F)F)c2)cc1O .
Output: No

---

# Test system: UACC-257 melanoma
# Protocol text: NCI-60 one-dose screen, 48 h
# Test parameters: 10 µM unless noted
This is part of a sample that, as a whole, favours compounds with a hit. Of some 83,000 tested, about 20% had one in any assay. Active and inactive are the calls of the source. The calls were made as follows: active = growth percent below 10; inactive = the rest.
Hi! Could you answer with just one of these? active, inactive

These solved cases illustrate the format of a correct answer.
C=C1c2c(C)nn(-c3ccc(O)cc3)c2N(C)C23C[C@@H]1C1(C)c4c(C)nn(-c5ccc(O)cc5)c4N(C)C(C)(C[C@H]12)C3 (some centres undefined) : inactive
CCN(CC)CCOC(=O)N1c2ccccc2Sc2ccccc21 : inactive
CN1C[C@@H](c2ccc(Cl)cc2)[C@]2(NC(=S)N(c3ccc(F)c(Cl)c3)C2=O)[C@@]12C(=O)NC1C=CC(Cl)=C[C@H]12 (some centres undefined) : inactive

Task: Answer briefly: the call reported for Clc1ccc(/C=N\N=c2\scc(-c3ccc(Cl)cc3)n2/N=C/c2ccc(Cl)cc2)cc1 in this assay.
Output: inactive

Task: Could you kindly confirm the outcome this assay logged for CC(C)n1nc(C#Cc2cccc3cc(-c4cccc(C(F)(F)F)c4)ncc23)c2c(N)ncnc21 ?
Output: inactive

Task: Given CNC(=O)NCC1OC(n2cnc3c(NC(=O)Nc4ccccc4)ncnc32)C2OC(C)(C)OC12 (centres undefined) , state the outcome it received in this test.
Output: inactive

Task: Given C=C(C=O)[C@@H]1CC=C(C=O)CC1 , state the outcome it received in this test.
Output: active

Task: Please let me know the test result on file for Cc1c2c(cn1Cc1ccccc1)CCc1cn[nH]c1-2 .
Output: inactive

Task: Just curious, what result did O=C(/C=C/C12c3ccccc3C(c3ccccc31)C1C(=O)NC(=O)C12)c1ccc(Cl)cc1 (centres undefined) get here?
Output: inactive
